System: codeinone reductase isoforms
Format: biochemical, Papaver somniferum
experimental.context: analogs and aldo/keto reductase family substrates; direction not given
property: transformed by codeinone reductase (tested as substrate)

[
  {
    "compound": "O=C1CCCCC1",
    "target.or.test.system": "codeinone reductase isoforms",
    "data.value": "not transformed"
  },
  {
    "compound": "O=C1C=CCCC1",
    "target.or.test.system": "codeinone reductase isoforms",
    "data.value": "not transformed"
  },
  {
    "compound": "CCCCC[C@H](O)/C=C/[C@H]1C(=O)C[C@H](O)[C@@H]1CCCCCCC(=O)O [prostaglandin D1]",
    "target.or.test.system": "codeinone reductase isoforms",
    "data.value": "not transformed"
  },
  {
    "compound": "CC(C)CCC[C@@H](C)[C@H]1CC[C@H]2[C@@H]3CC[C@H]4C[C@@H](O)CC[C@]4(C)[C@H]3CC[C@]12C",
    "target.or.test.system": "codeinone reductase isoforms",
    "data.value": "not transformed"
  },
  {
    "compound": "COc1ccc(C[C@H]2NCCc3cc(OC)c(O)cc32)cc1O [(R)-norreticuline]",
    "target.or.test.system": "codeinone reductase isoforms",
    "data.value": "inactive"
  },
  {
    "compound": "O=P(O)(O)OC[C@@H](O)[C@@H](O)[C@H](O)[C@@H](O)CO [D-Sorbitol-6-phosphate]",
    "target.or.test.system": "codeinone reductase isoforms",
    "data.value": "not transformed"
  },
  {
    "compound": "O=C[C@H](O)[C@@H](O)[C@H](O)CO",
    "target.or.test.system": "codeinone reductase isoforms",
    "data.value": "not transformed"
  },
  {
    "compound": "COc1ccc(C[C@@H]2NCCc3cc(OC)c(O)cc32)cc1O (mixture of isomers) [(S)-norreticuline, (S) and (R)-norreticuline]",
    "target.or.test.system": "codeinone reductase isoforms",
    "data.value": "inactive"
  },
  {
    "compound": "COc1ccc(C[C@H]2c3cc(O)c(OC)cc3CCN2C)cc1O [(S)-reticuline]",
    "target.or.test.system": "codeinone reductase isoforms",
    "data.value": "inactive"
  }
]
